Documented Luciferase Expression (RLU) 6 h across a set of molecules
# Test system: HeLa cells
# test.name: In vitro expression of firefly luciferase (Fluc) after treatment with Fluc mRNA/amino lipidated peptoid formulations, no PEG or 2% DMG-PEG2000
# Format: cell-based
# test.conditions: no PEG, peptoid:Fluc mRNA 5:1 w/w, 100 ng/well, 6 h of treatment
# Procedure: The efficacy of mRNA/amino lipidated peptoid formulations was evaluated in vitro based on their ability to deliver the firefly luciferase (Fluc) reporter gene to cultured cells. Amino lipidated peptoids were combined with Fluc mRNA at a 5:1 w/w ratio, and the resulting particles were added to cultured HeLa cells at a dose of 100 ng/well (in 100 μL total volume). The resulting luciferase expression (RLU) was measured by a luminescence plate reader after 6 hours and 24 hours of treatment. […]
# number only, unit RLU dropped from output

CCCCCCCCCCN(CC(=O)N(CCN)CC(=O)N(CCc1ccccc1)CC(=O)N(CCc1ccccc1)CC(=O)N(CCCCCCCCCC)CC(=O)N(CCN)CC(=O)N(CCc1ccccc1)CC(=O)N(CCc1ccccc1)CC(N)=O)C(=O)CN(CCc1ccccc1)C(=O)CN(CCc1ccccc1)C(=O)CNCCN    6.84E+02
CCCCCCCCCCN(CC(N)=O)C(=O)CN(CCCCCCCCCC)C(=O)CN(CCCCCCCCCC)C(=O)CN(CCCCCCCCCC)C(=O)CN(CCCCCCCCCC)C(=O)CN(CCCCCCCCCC)C(=O)CN(CCc1ccccc1)C(=O)CN(CCc1ccccc1)C(=O)CN(CCN)C(=O)CN(CCc1ccccc1)C(=O)CN(CCc1ccccc1)C(=O)CN(CCN)C(=O)CN(CCc1ccccc1)C(=O)CN(CCc1ccccc1)C(=O)CNCCN    6.63E+01

In: Recorded Luciferase Expression (RLU) 6 h for CCCCCCCCCCN(CC(N)=O)C(=O)CN(CCCCCCCCCC)C(=O)CN(CCCCCCCCCC)C(=O)CN(CCCCCCCCCC)C(=O)CN(CCc1ccccc1)C(=O)CN(CCc1ccccc1)C(=O)CN(CCNC)C(=O)CN(CCc1ccccc1)C(=O)CN(CCc1ccccc1)C(=O)CN(CCNC)C(=O)CN(CCc1ccccc1)C(=O)CN(CCc1ccccc1)C(=O)CNCCNC , please?
Out: 3.93E+02

###

# test.name: MTT viability assay after treatment with Fluc mRNA/amino lipidated peptoid formulations
# Type: cell-based
# test.conditions: human, HeLa cells, MTT, 2% (w/w) DMG-PEG2000, 5:1 mass ratio, 100 ng/well mRNA for 8 h then 48 h growth, normalized to untreated cells, read-out: Relative Viability (%) 2% PEG
measure.name: viability at 8 h, 500 ng/well (%)
# number only, unit % dropped from output

CCCCCCCCCCN(CC(N)=O)C(=O)CN(CCc1ccccc1)C(=O)CN(CCc1ccccc1)C(=O)CN(CCN)C(=O)CN(CCc1ccccc1)C(=O)CN(CCc1ccccc1)C(=O)CN(CCN)C(=O)CN(CCc1ccccc1)C(=O)CN(CCc1ccccc1)C(=O)CNCCN    88.9

# evaluate next
In: Recorded viability at 8 h, 500 ng/well for CCCCCCCCCCN(CC(N)=O)C(=O)CN(CCCCCCCCCC)C(=O)CN(CCCCCCCCCC)C(=O)CN(CCc1ccccc1)C(=O)CN(CCc1ccccc1)C(=O)CN(CCN)C(=O)CN(CCc1ccccc1)C(=O)CN(CCc1ccccc1)C(=O)CN(CCN)C(=O)CN(CCc1ccccc1)C(=O)CN(CCc1ccccc1)C(=O)CNCCN , please?
Out: 96

###

# Tested on: HeLa cells
# test.name: In vitro Fluc expression with variable peptoid:mRNA mass ratio, 2% DMG-PEG2000
# Type: cell-based
# test.conditions: 24 h, 2% (w/w) DMG-PEG2000, peptoid:mRNA 2:1
Documented Observed Luciferase Expression (RLU) for Given Formulation Mass Ratio 2:1 across a set of compounds
# number only, unit RLU dropped from output

CCCCCCCCCCN(CC(N)=O)C(=O)CN(CCCCCCCCCC)C(=O)CN(CCc1ccccc1)C(=O)CN(CCc1ccccc1)C(=O)CN(CC1CCNCC1)C(=O)CN(CCc1ccccc1)C(=O)CN(CCc1ccccc1)C(=O)CN(CC1CCNCC1)C(=O)CN(CCc1ccccc1)C(=O)CN(CCc1ccccc1)C(=O)CNCC1CCNCC1 [Compound 33]    1.76E+04
CCCCCCCCCCN(CC(N)=O)C(=O)CN(CCCCCCCCCC)C(=O)CN(CCc1ccccc1)C(=O)CN(CCc1ccccc1)C(=O)CN(CCNC)C(=O)CN(CCc1ccccc1)C(=O)CN(CCc1ccccc1)C(=O)CN(CCNC)C(=O)CN(CCc1ccccc1)C(=O)CN(CCc1ccccc1)C(=O)CNCCNC [Compound 27]    6.27E+03

# evaluate next
In: Recorded Observed Luciferase Expression (RLU) for Given Formulation Mass Ratio 2:1 for CCCCCCCCCCN(CC(N)=O)C(=O)CN(CCCCCCCCCC)C(=O)CN(CCc1ccccc1)C(=O)CN(CCc1ccccc1)C(=O)CN(CCCN)C(=O)CN(CCc1ccccc1)C(=O)CN(CCc1ccccc1)C(=O)CN(CCCN)C(=O)CN(CCc1ccccc1)C(=O)CN(CCc1ccccc1)C(=O)CNCCCN [Compound 30] , please?
Out: 4.27E+04

###

# test.name: MTT viability assay after treatment with Fluc mRNA/amino lipidated peptoid formulations
# Assay type: cell-based
# test.conditions: human, HeLa cells, Relative Viability (%) No PEG
measure.name: viability at 8 h, 500 ng/well (%)
# number only, unit % dropped from output

Example entries and their recorded answers appear below.
CCCCCCCCCCN(CC(=O)N(CCN)CC(=O)N(CCc1ccccc1)CC(=O)N(CCc1ccccc1)CC(=O)N(CCCCCCCCCC)CC(=O)N(CCN)CC(=O)N(CCc1ccccc1)CC(=O)N(CCc1ccccc1)CC(N)=O)C(=O)CN(CCc1ccccc1)C(=O)CN(CCc1ccccc1)C(=O)CNCCN    88
CCCCCCCCCCN(CC(N)=O)C(=O)CN(CCCCCCCCCC)C(=O)CN(CCc1ccccc1)C(=O)CN(CCc1ccccc1)C(=O)CN(CC1CCNCC1)C(=O)CN(CCc1ccccc1)C(=O)CN(CCc1ccccc1)C(=O)CN(CC1CCNCC1)C(=O)CN(CCc1ccccc1)C(=O)CN(CCc1ccccc1)C(=O)CNCC1CCNCC1    99.4

In: Recorded viability at 8 h, 500 ng/well for CCCCCCCCCCN(CC(N)=O)C(=O)CN(CCCCCCCCCC)C(=O)CN(CCCCCCCCCC)C(=O)CN(CCCCCCCCCC)C(=O)CN(CCc1ccccc1)C(=O)CN(CCc1ccccc1)C(=O)CN(CCNC)C(=O)CN(CCc1ccccc1)C(=O)CN(CCc1ccccc1)C(=O)CN(CCNC)C(=O)CN(CCc1ccccc1)C(=O)CN(CCc1ccccc1)C(=O)CNCCNC , please?
Out: 77.9

In: Recorded viability at 8 h, 500 ng/well for CCCCCCCCCCN(CC(N)=O)C(=O)CN(CCCCCCCCCC)C(=O)CN(CCc1ccccc1)C(=O)CN(CCc1ccccc1)C(=O)CN(CCCN)C(=O)CN(CCc1ccccc1)C(=O)CN(CCc1ccccc1)C(=O)CN(CCCN)C(=O)CN(CCc1ccccc1)C(=O)CN(CCc1ccccc1)C(=O)CNCCCN , please?
Out: 86.5

In: Recorded viability at 8 h, 500 ng/well for CCCCCCCCCCN(CC(N)=O)C(=O)CN(CCCCCCCCCC)C(=O)CN(CCCCCCCCCC)C(=O)CN(CCCCCCCCCC)C(=O)CN(CCCCCCCCCC)C(=O)CN(CCc1ccccc1)C(=O)CN(CCc1ccccc1)C(=O)CN(CCN)C(=O)CN(CCc1ccccc1)C(=O)CN(CCc1ccccc1)C(=O)CN(CCN)C(=O)CN(CCc1ccccc1)C(=O)CN(CCc1ccccc1)C(=O)CNCCN , please?
Out: 87.1

In: Recorded viability at 8 h, 500 ng/well for CCCCCCCCCCN(CC(N)=O)C(=O)CN(CCCCCCCCCC)C(=O)CN(CCCCCCCCCC)C(=O)CN(CCCCCCCCCC)C(=O)CN(CCCCCCCCCC)C(=O)CN(CCc1ccccc1)C(=O)CN(CCc1ccccc1)C(=O)CN(CCN)C(=O)CN(CCc1ccccc1)C(=O)CN(CCc1ccccc1)C(=O)CN(CCN)C(=O)CN(CCc1ccccc1)C(=O)CN(CCc1ccccc1)C(=O)CN(CCN)C(=O)CN(CCc1ccccc1)C(=O)CN(CCc1ccccc1)C(=O)CNCCN , please?
Out: 91.3

###

# test.name: MTT viability assay after treatment with Fluc mRNA/amino lipidated peptoid formulations
# Assay type: cell-based
# test.conditions: human, HeLa cells, viability
# Protocol: Cellular viability was measured following treatment with Fluc mRNA/amino lipidated peptoid formulations by a traditional MTT viability assay. […] In this assay, cells were first treated with peptoid formulations at a final mRNA concentration of 100 ng/well for 8 hours. […]
Documented viability at 8 h, 500 ng/well across a set of molecules

CCCCCCCCCCN(CC(N)=O)C(=O)CN(CCCCCCCCCC)C(=O)CN(CCCCCCCCCC)C(=O)CN(CCCCCCCCCC)C(=O)CN(CCc1ccccc1)C(=O)CN(CCc1ccccc1)C(=O)CN(CC1CCCN1)C(=O)CN(CCc1ccccc1)C(=O)CN(CCc1ccccc1)C(=O)CN(CC1CCCN1)C(=O)CN(CCc1ccccc1)C(=O)CN(CCc1ccccc1)C(=O)CNCC1CCCN1 (stereo not drawn)    < 80%
CCCCCCCCCCN(CC(N)=O)C(=O)CN(CCCCCCCCCC)C(=O)CN(CCCCCCCCCC)C(=O)CN(CCCCCCCCCC)C(=O)CN(CCc1ccccc1)C(=O)CN(CCc1ccccc1)C(=O)CN(CC1CCCN1)C(=O)CN(CCc1ccccc1)C(=O)CN(CCc1ccccc1)C(=O)CN(CC1CCCN1)C(=O)CN(CCc1ccccc1)C(=O)CN(CCc1ccccc1)C(=O)CN(CC1CCCN1)C(=O)CN(CCc1ccccc1)C(=O)CN(CCc1ccccc1)C(=O)CNCC1CCCN1 (stereo not drawn)    < 80%

In: Recorded viability at 8 h, 500 ng/well for CCCCCCCCCCCCCCCCCCN(CC(N)=O)C(=O)CN(CCCCCCCCCCCCCCCCCC)C(=O)CN(CCc1ccccc1)C(=O)CN(CCc1ccccc1)C(=O)CN(CCN)C(=O)CN(CCc1ccccc1)C(=O)CN(CCc1ccccc1)C(=O)CN(CCN)C(=O)CN(CCc1ccccc1)C(=O)CN(CCc1ccccc1)C(=O)CNCCN , please?
Out: < 80%
